- Target Entity: Interstitial collagenase (Homo sapiens, UniProt P03956)
- Sequence (P03956 whole entry): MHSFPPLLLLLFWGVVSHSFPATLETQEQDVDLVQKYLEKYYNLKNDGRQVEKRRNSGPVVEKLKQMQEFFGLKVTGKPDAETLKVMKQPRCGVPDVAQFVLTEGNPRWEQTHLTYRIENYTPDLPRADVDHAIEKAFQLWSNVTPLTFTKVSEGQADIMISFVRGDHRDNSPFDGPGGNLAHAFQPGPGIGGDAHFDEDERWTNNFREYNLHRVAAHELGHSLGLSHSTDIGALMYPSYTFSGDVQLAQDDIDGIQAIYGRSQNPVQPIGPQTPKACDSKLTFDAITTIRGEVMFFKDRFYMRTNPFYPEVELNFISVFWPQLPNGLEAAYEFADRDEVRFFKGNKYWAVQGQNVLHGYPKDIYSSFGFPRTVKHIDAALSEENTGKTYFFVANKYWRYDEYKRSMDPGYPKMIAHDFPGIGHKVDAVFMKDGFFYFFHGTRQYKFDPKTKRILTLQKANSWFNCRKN
Outcome Measure: Ki (µM)
Please reply with the bare figure in µM and do not write the unit itself.

INSERT INTO assay_data (smiles_code, outcome_measure, reported_value) VALUES
  ('CCCCCCNC(=O)[C@H](Cc1c[nH]c2ccccc12)NC(=O)[C@@H](CC(=O)NO)CC(C)C', 'Ki', 0.003);

Now turn to the next molecule.
Item under review: "CCCCCCNC(=O)[C@H](Cc1c[nH]c2ccccc12)NC(=O)[C@H](CC(C)C)CP(=O)(O)CSc1ccc2ccccc2n1" . Reported Ki?
0.432
